Reported Fold PAD4 Selectivity values for the following molecules.
Target: PAD4 (Homo sapiens, UniProt Q9UM07)
Construct: made in house
Sequence (Q9UM07 whole entry): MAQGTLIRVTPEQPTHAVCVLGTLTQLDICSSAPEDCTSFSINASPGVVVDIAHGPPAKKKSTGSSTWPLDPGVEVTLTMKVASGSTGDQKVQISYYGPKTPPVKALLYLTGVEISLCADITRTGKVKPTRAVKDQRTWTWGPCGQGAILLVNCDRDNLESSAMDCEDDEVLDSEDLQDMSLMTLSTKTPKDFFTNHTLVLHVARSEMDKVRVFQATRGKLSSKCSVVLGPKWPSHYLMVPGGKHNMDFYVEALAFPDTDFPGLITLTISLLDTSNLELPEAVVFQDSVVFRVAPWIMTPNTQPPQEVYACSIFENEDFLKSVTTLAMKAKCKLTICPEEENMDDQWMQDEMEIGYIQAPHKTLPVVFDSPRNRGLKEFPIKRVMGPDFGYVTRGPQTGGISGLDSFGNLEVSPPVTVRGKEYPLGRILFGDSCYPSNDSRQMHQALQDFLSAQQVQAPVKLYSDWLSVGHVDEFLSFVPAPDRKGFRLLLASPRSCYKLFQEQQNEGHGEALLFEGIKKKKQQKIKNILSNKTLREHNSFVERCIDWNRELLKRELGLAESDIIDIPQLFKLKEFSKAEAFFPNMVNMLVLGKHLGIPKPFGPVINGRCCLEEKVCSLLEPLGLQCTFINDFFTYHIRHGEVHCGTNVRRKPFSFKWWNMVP
Assay: Inactivation kinetics, PAD4
Type: biochemical
Settings: kinact/KI relative to least inhibited isozyme (1.0)
assayReadout: Fold PAD4 Selectivity (fold)

>>> recordedresult("CC(C)n1c([C@H](CCCNC(=N)CF)NC(=O)c2ccccc2C(=O)OC(C)(C)C)nc2ccccc21")
1.0
>>> recordedresult("COc1cccc2c1nc([C@H](CCCNC(=N)CF)NC(=O)c1ccccc1C(=O)O)n2C")
1.0
>>> recordedresult("CC(C)n1c([C@H](CCCNC(=N)CCl)NC(=O)c2ccccc2C(=O)OC(C)(C)C)nc2ccccc21")
1.0
>>> recordedresult("CCOc1cccc2c1nc([C@H](CCCNC(=N)CF)NC(=O)c1cccc3c1C(=O)NC3)n2C")
1.0
>>> recordedresult("Cn1c([C@H](CCCNC(=N)CF)NC(=O)c2ccc(-c3ccccc3)cc2)nc2ccccc21")
1.0
>>> recordedresult("CCN1Cc2cccc(C(=O)N[C@@H](CCCNC(=N)CF)c3nc4ccccc4[nH]3)c2C1=O")
1.0

###

Reported Fold PAD2 Selectivity values for the following compounds.
Molecular target: PAD2 (Homo sapiens, UniProt Q9Y2J8)
Construct: made in house
Sequence (Q9Y2J8 whole entry): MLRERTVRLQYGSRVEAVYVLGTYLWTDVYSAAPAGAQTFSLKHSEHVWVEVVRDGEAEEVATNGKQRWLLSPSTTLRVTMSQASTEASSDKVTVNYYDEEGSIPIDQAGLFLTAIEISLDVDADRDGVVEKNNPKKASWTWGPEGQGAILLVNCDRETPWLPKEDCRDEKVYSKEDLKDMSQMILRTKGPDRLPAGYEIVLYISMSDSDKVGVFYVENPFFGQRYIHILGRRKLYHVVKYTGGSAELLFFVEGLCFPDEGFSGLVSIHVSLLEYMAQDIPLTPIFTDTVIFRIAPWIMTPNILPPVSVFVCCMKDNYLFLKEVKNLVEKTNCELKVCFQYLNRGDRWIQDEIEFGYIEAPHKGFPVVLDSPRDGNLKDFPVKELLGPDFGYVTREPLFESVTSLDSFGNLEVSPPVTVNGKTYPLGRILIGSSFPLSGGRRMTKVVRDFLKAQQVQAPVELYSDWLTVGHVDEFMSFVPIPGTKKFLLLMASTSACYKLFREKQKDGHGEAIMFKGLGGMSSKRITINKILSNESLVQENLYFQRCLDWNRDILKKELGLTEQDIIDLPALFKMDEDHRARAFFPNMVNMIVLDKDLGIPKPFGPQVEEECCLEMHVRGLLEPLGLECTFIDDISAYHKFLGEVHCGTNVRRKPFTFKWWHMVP
Assay: Inactivation kinetics, PAD2
Type: biochemical
Conditions: kinact/KI relative to least inhibited isozyme (1.0)
Experimental: Inactivation kinetic parameters were determined by incubating PAD1, 2, or 4 (2.0 μM) or PAD3 (5.0 μM) in a pre-warmed (10 min; 37° C.) inactivation mixture (50 mM HEPES, 10 mM CaCl2, and 2 mM DTT, pH 7.6, with a final volume of 60 μL) containing various concentrations of inhibitor. […] After 15 min, reactions were quenched in liquid nitrogen and citrulline production quantified using the COLDER assay. […]
assayReadout: Fold PAD2 Selectivity (fold)

>>> recordedresult("N=C(CCl)NCCC[C@H](NC(=O)c1cccc2c1C(=O)NC2)c1nc2ccccc2[nH]1")
2.3
>>> recordedresult("Cn1c([C@H](CCCNC(=N)CCl)NC(=O)c2ccccc2C(=O)O)nc2ccccc21")
1.9
>>> recordedresult("COc1cccc2c1nc([C@H](CCCNC(=N)CCl)NC(=O)c1ccccc1C(=O)O)n2C")
1.9

###

Biological target: PAD4 (Homo sapiens, UniProt Q9UM07)
Construct: made in house
Test: Inactivation kinetics, PAD4
Assay type: biochemical
Conditions: a: single kobs determined; b: from a linear fit
assayReadout: kinact/KI

>>> recordedresult("COc1cccc2c1nc([C@H](CCCNC(=N)CF)NC(=O)c1ccccc1C(=O)O)n2C")
"101 M⁻¹ s⁻¹"
>>> recordedresult("CCN1Cc2cccc(C(=O)N[C@@H](CCCNC(=N)CCl)c3nc4ccccc4n3CC)c2C1=O")
"54.2 M⁻¹ s⁻¹"
>>> recordedresult("COc1ccc2[nH]c([C@H](CCCNC(=N)CF)NC(=O)c3cccc4c3C(=O)NC4)nc2c1")
"264 M⁻¹ s⁻¹"
>>> recordedresult("COc1cccc2c1nc([C@H](CCCNC(=N)CCl)NC(=O)c1cccc3c1C(=O)N(C1CC1)C3)n2C")
"143 M⁻¹ s⁻¹"
>>> recordedresult("COc1cccc2c1nc([C@H](CCCNC(=N)CF)NC(=O)c1cccc3c1C(=O)N(C)C3)n2C")
"38.3 M⁻¹ s⁻¹"
>>> recordedresult("COc1cccc2c1nc([C@H](CCCNC(=N)CCl)NC(=O)c1ccccc1C(=O)O)n2C")
"235 M⁻¹ s⁻¹"
>>> recordedresult("CCOc1cccc2c1nc([C@H](CCCNC(=N)CF)NC(=O)c1cccc3c1C(=O)N(CC)C3)n2C")
"55.8 M⁻¹ s⁻¹"
